Where do these numbers come from? They come from ChEMBL document CHEMBL1158784.

- Test system: Bacillus subtilis
- METHOD_DESCRIPTION: Antimicrobial activity against Bacillus subtilis at 20 ug/9 mm disk by agar diffusion method
- Type: functional
The source made the active and inactive calls. No cut-off for these calls is given here.

SMI	Activity
C/C=C/C=C/C(=O)C1=C(C)C(=O)C(O)=C(C)C1=O	inactive
C/C=C/C=C/C(O)=C1\C(=O)C(C)=C(O)[C@@](C)(O)C1=O	inactive
C/C=C/CCC(=O)c1c(C)c(O)c(O)c(C)c1O	inactive
C/C=C/C=C/C(=O)C1=C[C@@]2(C)[C@H]3C(C(=O)/C=C/C=C/C)=C(O)C(C)=C(O)[C@@]3(C)O[C@@]2(O)[C@@](C)(O)C1=O	inactive
